Biological target: UniProtKB Q9UBS0
Sequence (Q9UBS0 whole entry, looked up): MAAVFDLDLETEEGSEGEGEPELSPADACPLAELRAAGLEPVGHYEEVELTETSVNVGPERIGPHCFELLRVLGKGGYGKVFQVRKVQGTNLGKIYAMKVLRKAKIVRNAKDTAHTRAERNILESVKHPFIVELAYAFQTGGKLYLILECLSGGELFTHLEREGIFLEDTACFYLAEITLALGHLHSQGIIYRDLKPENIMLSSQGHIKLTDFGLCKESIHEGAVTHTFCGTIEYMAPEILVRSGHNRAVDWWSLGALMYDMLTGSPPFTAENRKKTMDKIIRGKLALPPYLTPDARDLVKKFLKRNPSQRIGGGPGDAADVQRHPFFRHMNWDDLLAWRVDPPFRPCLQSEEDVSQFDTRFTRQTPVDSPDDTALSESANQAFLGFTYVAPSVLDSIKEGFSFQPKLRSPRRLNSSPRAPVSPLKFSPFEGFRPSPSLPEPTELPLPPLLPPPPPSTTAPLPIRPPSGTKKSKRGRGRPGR
Experiment: radiometric filter-binding kinase assay, Kinase HotSpot
Conditions: compound 0.5 µM; ATP 10 µM
Catalogue of residual activity values
Respond numerically; units are % and should not be typed.

Recorded residual activity, per entry:
CC(C)(C)c1nc2c3ccc(F)cc3c3c(=O)[nH]ccc3c2[nH]1    102
Cc1ccc(NC(=O)c2ccc(CN3CCN(C)CC3)cc2)cc1Nc1nc(-c2cccnc2)cs1    101

Under UniProtKB Q9UBS0: residual activity value of `O=C1Nc2cc(Br)ccc2/C1=C1/Nc2ccccc2/C1=N\O` ?
100

Try this molecule next: CSc1nc(-c2ccc(F)cc2)c(-c2ccnc(NC(C)c3ccccc3)c2)[nH]1 (stereo not given)
92.8

Try this molecule next: `CC(C)[C@H](CO)Nc1nc(Nc2cccc(Cl)c2)c2ncn(C(C)C)c2n1`
101
